Each entry below carries its recorded Activity.
Tested on: Radical scavenging activity
protocol_text: Antioxidant activity assessed as DPPH radical scavenging activity in ethanol solution at 25 ug/mL
Format: functional

test_smiles	unit_abbrev	Activity
Cc1cc(O)c(C(C)C)cc1/N=C/c1ccccc1O	%	70.7
Cc1cc(O)c(C(C)(C)C)cc1/N=C/c1ccc(O)cc1	%	70.9
Cc1cc(O)c(C(C)C)cc1/N=C/c1cc(Br)c(O)c(Br)c1	%	78.7
CCCc1ccc(/C=N/c2cc(C)c(O)cc2C(C)C)cc1	%	63.9
Cc1ccc(/C=N/c2cc(C(C)C)c(O)cc2C)cc1	%	64.7
COc1cc(/C=N/c2cc(C(C)(C)C)c(O)cc2C)cc(OC)c1	%	66.1

---

Test system: Radical scavenging activity
protocol_text: Antioxidant activity assessed as DPPH radical scavenging activity in chloroform solution at 25 ug/mL
Format: functional
value_kind: Activity (%)

test_smiles	value_kind	test_result
Cc1cc(O)c(C(C)(C)C)cc1/N=C/c1cc(Br)c(O)c(Br)c1	Activity	78.5
COc1cc(/C=N/c2cc(C(C)C)c(O)cc2C)cc(OC)c1	Activity	59.5
Cc1cc(O)c(C(C)(C)C)cc1/N=C/c1ccc(O)cc1	Activity	63.3
COc1cc(/C=N/c2cc(C(C)(C)C)c(O)cc2C)cc(OC)c1OC	Activity	75.8
Cc1cc(/N=C/c2cc(Br)c(O)c(Br)c2)c(C(C)C)cc1O	Activity	69
COc1ccc(/C=N/c2cc(C)c(O)cc2C(C)C)cc1OC	Activity	64.2

---

# Activity listing for each entry below
System: Radical scavenging activity
protocol_text: Antioxidant activity assessed as DPPH radical scavenging activity in ethanol solution at 25 ug/mL
Format: functional

compound	Activity
COc1ccc(/C=N/c2cc(C)c(O)cc2C(C)C)cc1	69.2%
Cc1cc(O)c(C(C)C)cc1/N=C/c1ccc(C(C)C)cc1	67.5%
Cc1ccc(C(C)(C)C)c(O)c1	11.3%
COc1ccc(/C=N/c2cc(C(C)C)c(O)cc2C)cc1OC	73.4%
Cc1cc(/N=C/c2ccccc2O)c(C(C)C)cc1O	70.6%
Cc1cc(/N=C/c2ccccn2)c(C(C)C)cc1O	65.2%
Cc1cc(O)c(C(C)(C)C)cc1/N=C/c1ccc(Br)cc1	59.4%
Cc1cc(O)c(C(C)(C)C)cc1/N=C/c1cc(Br)c(O)c(Br)c1	82.8%
Cc1cc(O)c(C(C)(C)C)cc1/N=C/c1ccc([N+](=O)[O-])cc1	45.3%
Cc1cc(O)c(C(C)(C)C)cc1/N=C/c1ccc(C(C)(C)C)cc1	65.2%
Cc1cc(O)c(C(C)C)cc1/N=C/c1ccc(Br)cc1	60%
Cc1cc(O)c(C(C)(C)C)cc1/N=C/c1ccccc1	61.1%
Cc1cc(O)c(C(C)(C)C)cc1/N=C/c1cc(Br)cc(Br)c1O	72.7%
Cc1cc(/N=C/c2ccc(C(C)(C)C)cc2)c(C(C)C)cc1O	62.1%
Cc1cc(O)c(C(C)C)cc1/N=C/c1cc(Br)cc(Br)c1O	75.9%
Cc1cc(O)c(C(C)(C)C)cc1/N=C/c1ccc(F)cc1	57%
Cc1cc(O)c(C(C)C)cc1/N=C/c1ccc2c(c1)OCO2	74.5%
Cc1cc(/N=C/c2ccc(Cl)cc2)c(C(C)C)cc1O	59.6%
Cc1ccc(C(C)C)c(O)c1 [THYMOL]	14.7%

---

Test system: Radical scavenging activity
protocol_text: Antioxidant activity assessed as DPPH radical scavenging activity in chloroform solution at 25 ug/mL
Assay type: functional

test_smiles	Activity, %
Cc1cc(O)c(C(C)C)cc1/N=C/c1cc(Br)c(O)c(Br)c1	69.2
COc1ccc(/C=N/c2cc(C(C)C)c(O)cc2C)cc1OC	72
COc1cc(/C=N/c2cc(C(C)C)c(O)cc2C)cc(OC)c1OC	68.2
COc1cc(/C=N/c2cc(C(C)(C)C)c(O)cc2C)cc(OC)c1	67.9
Cc1cc(O)c(C(C)C)cc1/N=C/c1ccccc1O	70.6
Cc1cc(O)c(C(C)C)cc1/N=C/c1ccc(O)cc1	70.2

---

Activity values by entry
Tested on: Radical scavenging activity
protocol_text: Antioxidant activity assessed as DPPH radical scavenging activity in chloroform solution at 50 ug/mL
Type: functional

test_smiles	Activity (%)
Cc1cc(O)c(C(C)(C)C)cc1/N=C/c1ccc(O)cc1	82.3
COc1ccc(/C=N/c2cc(C)c(O)cc2C(C)C)cc1OC	82.3
COc1cc(/C=N/c2cc(C)c(O)cc2C(C)C)cc(OC)c1	79.1
COc1ccc(/C=N/c2cc(C(C)(C)C)c(O)cc2C)cc1OC	82.1
COc1cc(/C=N/c2cc(C(C)(C)C)c(O)cc2C)cc(OC)c1OC	81.7
Cc1cc(O)c(C(C)C)cc1/N=C/c1cc(Br)cc(Br)c1O	78.1
COc1ccc(/C=N/c2cc(C)c(O)cc2C(C)C)cc1	78.4
Cc1cc(/N=C/c2cc(Br)c(O)c(Br)c2)c(C(C)C)cc1O	85.8
Cc1cc(/N=C/c2cc(Br)cc(Br)c2O)c(C(C)C)cc1O	77.4
Cc1cc(O)c(C(C)(C)C)cc1/N=C/c1ccccc1O	85.7
COc1ccc(/C=N/c2cc(C(C)C)c(O)cc2C)cc1OC	85.2

---

System: Radical scavenging activity
protocol_text: Antioxidant activity assessed as DPPH radical scavenging activity in ethanol solution at 25 ug/mL
Type: functional
Please assign not fulfilled whenever Activity is at or above 60%, and fulfilled whenever it is below.

compound	group
Cc1cc(O)c(C(C)C)cc1/N=C/c1ccc(O)cc1	not fulfilled
CCCc1ccc(/C=N/c2cc(C(C)C)c(O)cc2C)cc1	not fulfilled
COc1cc(/C=N/c2cc(C(C)(C)C)c(O)cc2C)cc(OC)c1OC	not fulfilled
Cc1cc(O)c(C(C)C)cc1/N=C/c1cccnc1	fulfilled
COc1cc(/C=N/c2cc(C(C)C)c(O)cc2C)cc(OC)c1	not fulfilled
Cc1cc(O)c(C(C)C)cc1/N=C/c1ccc(F)cc1	not fulfilled
Cc1cc(/N=C/c2ccccc2)c(C(C)C)cc1O	not fulfilled
COc1ccc(/C=N/c2cc(C(C)(C)C)c(O)cc2C)cc1	not fulfilled
COc1cc(/C=N/c2cc(C)c(O)cc2C(C)C)cc(OC)c1	not fulfilled
Cc1cc(/N=C/c2ccc(O)cc2)c(C(C)C)cc1O	not fulfilled
Cc1cc(O)c(C(C)(C)C)cc1/N=C/c1cccnc1	fulfilled
CCc1ccc(/C=N/c2cc(C(C)C)c(O)cc2C)cc1	not fulfilled
O=C1O[C@H]([C@@H](O)CO)C(O)=C1O [ASCORBIC ACID]	not fulfilled
COc1ccc(/C=N/c2cc(C(C)(C)C)c(O)cc2C)cc1OC	not fulfilled
Cc1ccc(/C=N/c2cc(C(C)(C)C)c(O)cc2C)cc1	fulfilled
Cc1cc(/N=C/c2ccc([N+](=O)[O-])cc2)c(C(C)C)cc1O	fulfilled
Cc1cc(/N=C/c2cc(Br)cc(Br)c2O)c(C(C)C)cc1O	not fulfilled
Cc1cc(O)c(C(C)C)cc1/N=C/c1ccc([N+](=O)[O-])cc1	fulfilled
